half-life overview
- ASSAY REMARKS: Half life in rat at 2 mg/kg, iv
- Type: ADME, organism-based
- Parameters: dose 2 mg/kg, route intravenous
- SETUP CONDITIONS: in vivo
Give just the number in h; leave the unit off.

Example entries and their recorded answers appear below.
>>> df
                     chemical_smiles  readout_kind  numeric_result
0  CC(C)c1cc(N2CC[C@@H](N)C2)nc(N)n1     half-life             2.1
1    CCc1cc(N2CC[C@@H](NC)C2)nc(N)n1     half-life             5.3

Proceed to the following item.
# input I would be grateful if you could share the reported half-life for Nc1nc(C2CCCC2)cc(N2CCNCC2)n1 .
# output 1.1
